Biological target: T1, mouse DLL4 extracellular domain (mouse, UniProt Q9JI71 27-532)
T1 construct: extracellular domain; also called muDLL4 ECD; murine DLL4
T1 sequence (Q9JI71 27-532): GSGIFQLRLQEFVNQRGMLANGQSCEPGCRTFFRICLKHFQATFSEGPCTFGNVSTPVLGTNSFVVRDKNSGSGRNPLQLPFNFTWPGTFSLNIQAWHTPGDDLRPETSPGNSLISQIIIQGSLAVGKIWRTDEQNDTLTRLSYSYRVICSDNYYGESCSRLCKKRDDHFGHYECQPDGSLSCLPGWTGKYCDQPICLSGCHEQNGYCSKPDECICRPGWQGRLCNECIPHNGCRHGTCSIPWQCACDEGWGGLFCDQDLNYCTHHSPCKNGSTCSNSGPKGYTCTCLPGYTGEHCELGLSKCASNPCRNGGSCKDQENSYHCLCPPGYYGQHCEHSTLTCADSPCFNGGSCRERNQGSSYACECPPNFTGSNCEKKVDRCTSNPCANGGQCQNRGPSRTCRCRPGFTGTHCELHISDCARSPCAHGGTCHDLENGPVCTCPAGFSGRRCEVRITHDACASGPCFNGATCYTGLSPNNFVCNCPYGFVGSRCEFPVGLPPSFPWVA
Experiment: binding ELISA
readout-type: EC50 (nM)
Express it in nM; write the number only.

>  <binder>
h1A11.13 (antibody, V domains shown, humanized IgG; also called VH.2a/VL.1 1A11) VH: EVQLVESGGGLVQPGGSLRLSCAASGFTFSNFPMAWVRQAPGKGLEWVATISSSDGTTYYRDSVKGRFTISRDNSKSTLYLQMNSLRAEDTAVYYCSRGYYNSPFAYWGQGTLVTVSS VL: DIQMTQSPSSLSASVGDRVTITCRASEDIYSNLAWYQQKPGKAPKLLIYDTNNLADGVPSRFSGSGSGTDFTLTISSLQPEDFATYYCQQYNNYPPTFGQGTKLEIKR

>  <readout-type>
EC50

>  <assay-result>
0.09

$$$$

// next item, EC50 requested
[in] What does the record list as EC50 for h1A11.14 (antibody, V domains shown, humanized IgG; also called VH.2a/VL.1a 1A11) VH: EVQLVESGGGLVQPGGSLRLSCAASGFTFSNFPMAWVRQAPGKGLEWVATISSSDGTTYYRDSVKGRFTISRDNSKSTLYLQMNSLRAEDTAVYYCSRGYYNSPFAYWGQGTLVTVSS VL: DIQMTQSPSSLSASVGDRVTITCRASEDIYSNLAWYQQKPGKSPKLLIFDTNNLADGVPSRFSGSGSGTDSTLTISSLQPEDFATYFCQQYNNYPPTFGQGTKLEIKR ?
[out] 0.07
